Data provenance is patent US20050277586A1.

biological target: phosphatidyl serine (binding of human Factor VIII); test: Affinity for phosphatidyl serine (EIA, inhibition of human Factor VIII binding); settings: in the presence of 5% BSA, human Factor VIII 1 μg/mL
Please respond with reported IC50 for every item in the list.

Enquiry: Give the reported value of IC50 for this record: TRYLRIHPRSWVHQIALKLKYLRIHPRSWVHQIALRS [SEQ ID NO: 7]
Return: 1000 to 10000 nM

Enquiry: Give the reported value of IC50 for this record: TIHPRSWVHQIALRLRYLRIHPRSWVHQIAS [SEQ ID NO: 23]
Return: < 1000 nM

Enquiry: Give the reported value of IC50 for this record: TRYLRIHPRSWVHNIALRLRYLRIHPRSWVHNIALRS [SEQ ID NO: 6]
Return: < 1000 nM

Enquiry: Give the reported value of IC50 for this record: TRYLRIHPRLWVHQIALRLRYLRIHPRLWVHQIALRS [SEQ ID NO: 11]
Return: 1000 to 10000 nM

Enquiry: Give the reported value of IC50 for this record: TRYLRIHPKSWVHQIALRLRYLKIHPRSWVHQIALRS [SEQ ID NO: 8]
Return: 1000 to 10000 nM

Enquiry: Give the reported value of IC50 for this record: TRSLRIHPRLWVHQIALRLRSLRIHPRLWVHQIALRS [SEQ ID NO: 17]
Return: < 1000 nM

Enquiry: Give the reported value of IC50 for this record: TRYLRLHPRSWLHQLALRLRYLRLHPRSWLHQLALRS [SEQ ID NO: 19]
Return: < 1000 nM

Enquiry: Give the reported value of IC50 for this record: TRYLRIHPRSWVHQIRLRLRYLRIHPRSWVHQIRLRS [SEQ ID NO: 3]
Return: < 1000 nM

Enquiry: Give the reported value of IC50 for this record: TRSLRIHPRSWVHQIALRLRSLRIHPRSWVHQIALRS [SEQ ID NO: 10]
Return: 1000 to 10000 nM

Enquiry: Give the reported value of IC50 for this record: TRFLRIHPRSWVHQIALRLRFLRIHPRSWVHQIALRS [SEQ ID NO: 5]
Return: < 1000 nM

Enquiry: Give the reported value of IC50 for this record: TRYLRIRPRSWVRQIALRLRYLRIRPRSWVRQIALRS [SEQ ID NO: 15]
Return: < 1000 nM

Enquiry: Give the reported value of IC50 for this record: TRYLRIHPRSWVRQIALRLRYLRIHPRSWVRQIALRS [SEQ ID NO: 2]
Return: < 1000 nM

Enquiry: Give the reported value of IC50 for this record: TRYLRIHPRSWVHQIALRLRYLRIHPRSWVHQIALRS [SEQ ID NO: 1]
Return: < 1000 nM
